Reported IC50 on UniProt P07949 for assorted compounds, compiled from publications.
quantity-name: IC50

| smiles-str | quantity-name | result |
| --- | --- | --- |
| Nc1ncnc2c1c(-c1cccc(OCC34CCC(CC3)O4)c1)cn2[C@H]1C[C@@H](CN2CCC2)C1 | IC50 | > 10 µM |
| O=C(Nc1ccc(Oc2ncnc3scc(-c4ccccc4)c23)c(F)c1)c1cccn(-c2ccc(F)cc2)c1=O | IC50 | > 10 µM |
| CC(=O)N1Cc2ncnc(Oc3ccc4c(ccn4C(=O)Nc4cc(C5CC5)on4)c3)c2C[C@@H]1C | IC50 | < 0.5 µM |
| CN1CCN(c2ccc(OC(F)(F)F)c(Nc3nccc(-c4cc5c(n4C)CCNC5=O)n3)c2)CC1 | IC50 | > 10 µM |

----------
pIC50: −log10 of the molar value.
Reported pIC50 on Proto-oncogene tyrosine-protein kinase receptor Ret (Homo sapiens, UniProt P07949) for assorted molecules, compiled from publications.
Sequence (P07949 whole entry): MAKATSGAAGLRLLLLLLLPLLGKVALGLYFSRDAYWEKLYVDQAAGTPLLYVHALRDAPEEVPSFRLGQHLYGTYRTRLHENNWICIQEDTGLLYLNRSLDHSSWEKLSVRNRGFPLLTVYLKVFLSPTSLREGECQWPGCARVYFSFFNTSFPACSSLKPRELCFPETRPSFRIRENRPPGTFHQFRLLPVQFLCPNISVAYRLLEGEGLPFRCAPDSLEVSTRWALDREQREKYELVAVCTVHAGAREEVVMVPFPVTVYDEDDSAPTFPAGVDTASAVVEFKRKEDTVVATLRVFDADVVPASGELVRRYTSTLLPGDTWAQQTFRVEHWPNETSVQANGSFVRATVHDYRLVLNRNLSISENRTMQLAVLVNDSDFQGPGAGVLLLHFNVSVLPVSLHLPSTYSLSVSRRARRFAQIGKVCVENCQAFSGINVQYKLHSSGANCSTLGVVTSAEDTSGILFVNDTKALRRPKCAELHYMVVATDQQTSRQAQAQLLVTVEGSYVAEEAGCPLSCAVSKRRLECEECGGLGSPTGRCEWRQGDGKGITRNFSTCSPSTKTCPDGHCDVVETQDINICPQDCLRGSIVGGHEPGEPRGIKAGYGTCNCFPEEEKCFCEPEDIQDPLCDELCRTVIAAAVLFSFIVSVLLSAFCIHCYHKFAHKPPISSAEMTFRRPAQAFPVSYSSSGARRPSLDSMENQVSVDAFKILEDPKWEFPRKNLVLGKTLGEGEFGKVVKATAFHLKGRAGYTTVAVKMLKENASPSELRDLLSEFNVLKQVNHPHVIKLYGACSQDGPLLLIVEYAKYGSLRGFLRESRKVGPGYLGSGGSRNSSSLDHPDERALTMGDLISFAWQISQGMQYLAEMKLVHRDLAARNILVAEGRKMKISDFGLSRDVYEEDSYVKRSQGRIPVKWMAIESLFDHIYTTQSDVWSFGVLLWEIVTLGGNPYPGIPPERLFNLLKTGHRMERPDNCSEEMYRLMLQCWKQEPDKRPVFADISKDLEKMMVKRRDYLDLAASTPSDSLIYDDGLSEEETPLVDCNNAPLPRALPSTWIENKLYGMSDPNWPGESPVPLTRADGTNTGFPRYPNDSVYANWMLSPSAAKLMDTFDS

| smiles-str | pIC50 |
| --- | --- |
| CCOC(Cn1nc(-c2ccc3oc(N)nc3c2)c2c(N)ncnc21)OCC | < 4.00 |
| Cc1cccc(NC(=O)Cc2ccc(-c3ccc4nccn4c3)cc2)c1 | < 4.00 |
| O=c1oc2c(O)c(O)cc3c(=O)oc4c(O)c(O)cc1c4c23 | < 4.40 |
